tested system: T1, PSMA Fab
T1 construct: also called Anti-PSMA Fab; 006 PSMA Fab
test: clonal phage ELISA on biotinylated PSMA Fab captured on neutravidin plates, anti-M13 HRP detection, blocking buffer alone
Where no end group is shown, it is not given here.
measured parameter: Phage binding ELISA signal, Anti-PSMA Fab
One number for each entry.

Here is how some binders turned out for Phage binding ELISA signal, Anti-PSMA Fab.
binder: FPRLCEPLWMCKGF (cysteine pairing not given here; also: fused to phage pIII, orientation and linker not given here, Clonal phage of the Peptide-180 library, tested as crude supernatant; not shown: fused to pIII of the bacteriophage) [Phage-3151]
result value: 2.04
--
binder: WDQWCVPKWMCQGF (cysteine pairing not given here; also: fused to phage pIII, orientation and linker not given here, Clonal phage of the Peptide-180 library, tested as crude supernatant; not shown: fused to pIII of the bacteriophage) [Phage-3152]
result value: 2.04
--
binder: VSSMCKPAWMCSGF (cysteine pairing not given here; also: fused to phage pIII, orientation and linker not given here, Clonal phage of the Peptide-180 library, tested as crude supernatant; not shown: fused to pIII of the bacteriophage) [Phage-3155]
result value: 2.04
--
binder: DAPLCKPQWMCSGF (cysteine pairing not given here; also: fused to phage pIII, orientation and linker not given here, Clonal phage of the Peptide-180 library, tested as crude supernatant; not shown: fused to pIII of the bacteriophage) [Phage-3150]
result value: 2.04
--
binder: DMSLCKPPWMCFGF (cysteine pairing not given here; also: fused to phage pIII, orientation and linker not given here, Clonal phage of the Peptide-180 library, tested as crude supernatant; not shown: fused to pIII of the bacteriophage) [Phage-3153]
result value: 2.04

# return Phage binding ELISA signal, Anti-PSMA Fab for each item in the list
1. FEMFCIPAWMCSGL (cysteine pairing not given here; also: fused to phage pIII, orientation and linker not given here, Clonal phage of the Peptide-180 library, tested as crude supernatant; not shown: fused to pIII of the bacteriophage) [Phage-3147]
2. PWIVCKPAWMCTGF (cysteine pairing not given here; also: fused to phage pIII, orientation and linker not given here, Clonal phage of the Peptide-180 library, tested as crude supernatant; not shown: fused to pIII of the bacteriophage) [Phage-3154]
3. GPIMCQPRWMCEGF (cysteine pairing not given here; also: fused to phage pIII, orientation and linker not given here, Clonal phage of the Peptide-180 library, tested as crude supernatant; not shown: fused to pIII of the bacteriophage) [Phage-3146]
4. HLPRCEPAWMCHGF (cysteine pairing not given here; also: fused to phage pIII, orientation and linker not given here, Clonal phage of the Peptide-180 library, tested as crude supernatant; not shown: fused to pIII of the bacteriophage) [Phage-3144]
5. IQVMCRPAWMCSGF (cysteine pairing not given here; also: fused to phage pIII, orientation and linker not given here, Clonal phage of the Peptide-180 library, tested as crude supernatant; not shown: fused to pIII of the bacteriophage) [Phage-3156]
6. SVPLCIPEWMCVGF (cysteine pairing not given here; also: fused to phage pIII, orientation and linker not given here, Clonal phage of the Peptide-180 library, tested as crude supernatant; not shown: fused to pIII of the bacteriophage) [Phage-3143]
7. IERSCTPSWMCHGF (cysteine pairing not given here; also: fused to phage pIII, orientation and linker not given here, Clonal phage of the Peptide-180 library, tested as crude supernatant; not shown: fused to pIII of the bacteriophage) [Phage-3145]
8. LLPACKPTWMCTGL (cysteine pairing not given here; also: fused to phage pIII, orientation and linker not given here, Clonal phage of the Peptide-180 library, tested as crude supernatant; not shown: fused to pIII of the bacteriophage) [Phage-3149]

Solution:
2.05
2.04
2.05
2.05
2.04
2.05
2.05
2.04

Problem: Recorded Phage binding ELISA signal, Anti-PSMA Fab of AEYMCIPSWMCHGM (cysteine pairing not given here; also: fused to phage pIII, orientation and linker not given here, Clonal phage of the Peptide-180 library, tested as crude supernatant; not shown: fused to pIII of the bacteriophage) [Phage-3148] , please.
Solution: 2.05

Value source: patent US20260242478A1
